Data credit: ChEMBL document CHEMBL1132569

system: Muscarinic acetylcholine receptor M3 (Homo sapiens) (UniProt P20309)
Sequence (P20309 whole entry, looked up): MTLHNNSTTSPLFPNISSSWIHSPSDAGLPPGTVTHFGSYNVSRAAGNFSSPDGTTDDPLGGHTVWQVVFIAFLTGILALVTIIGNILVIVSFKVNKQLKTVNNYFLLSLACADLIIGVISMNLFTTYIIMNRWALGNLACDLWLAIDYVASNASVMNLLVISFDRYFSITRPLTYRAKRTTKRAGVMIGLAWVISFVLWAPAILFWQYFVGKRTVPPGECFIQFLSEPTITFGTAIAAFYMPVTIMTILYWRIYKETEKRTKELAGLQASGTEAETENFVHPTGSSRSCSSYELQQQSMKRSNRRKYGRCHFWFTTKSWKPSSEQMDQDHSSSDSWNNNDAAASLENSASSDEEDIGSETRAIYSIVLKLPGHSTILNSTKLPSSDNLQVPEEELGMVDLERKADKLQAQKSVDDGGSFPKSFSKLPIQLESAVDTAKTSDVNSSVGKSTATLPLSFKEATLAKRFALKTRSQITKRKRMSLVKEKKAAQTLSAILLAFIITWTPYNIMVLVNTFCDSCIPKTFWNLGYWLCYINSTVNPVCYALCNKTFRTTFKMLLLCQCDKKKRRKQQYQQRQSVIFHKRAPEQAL
assayMethodText: Cooperativity with acetylcholine at human muscarinic acetylcholine receptor M3
// Cooperativity lookup, one value per entry

Prompt line: Give a short answer stating reported Cooperativity for C=CC[N+]12CC[C@@]34c5ccccc5N5C(=O)C[C@@H]6OCC=C(C1)[C@H](C[C@@H]32)[C@@H]6[C@H]54 (some centres not stated) .
Response line: < 0.2

* * *

system: Muscarinic acetylcholine receptor M1 (Homo sapiens) (UniProt P11229)
Sequence (P11229 whole entry): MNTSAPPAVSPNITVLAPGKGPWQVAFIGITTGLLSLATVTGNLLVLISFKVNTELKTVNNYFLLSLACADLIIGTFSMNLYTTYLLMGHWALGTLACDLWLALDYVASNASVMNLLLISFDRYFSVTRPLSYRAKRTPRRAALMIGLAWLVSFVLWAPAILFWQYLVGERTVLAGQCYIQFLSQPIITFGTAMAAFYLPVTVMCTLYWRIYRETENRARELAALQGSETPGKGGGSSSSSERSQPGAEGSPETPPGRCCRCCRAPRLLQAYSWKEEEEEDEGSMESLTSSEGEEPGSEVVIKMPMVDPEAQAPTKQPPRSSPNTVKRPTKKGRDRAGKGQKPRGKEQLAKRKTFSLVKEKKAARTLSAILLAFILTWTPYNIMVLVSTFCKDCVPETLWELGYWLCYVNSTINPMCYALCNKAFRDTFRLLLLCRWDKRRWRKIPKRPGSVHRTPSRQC
assayMethodText: Cooperativity with NMS at human muscarinic acetylcholine receptor M1
// Cooperativity lookup, one value per entry
Lab note: jot the number down without any unit.

1) COc1cc2c(cc1OC)[C@@]13CC[N+]4(N)CC5=CCO[C@H]6CC(=O)N2[C@H]1[C@H]6[C@H]5C[C@@H]34 (some centres not stated) ... 1.19

Prompt line: Give a short answer stating reported Cooperativity for O=C1C[C@@H]2OCC=C3C[N+]4(Cc5ccccc5)CC[C@]56c7ccccc7N1[C@H]5[C@H]2[C@H]3C[C@@H]64 (some centres not stated) .
Response line: 2

Prompt line: Give a short answer stating reported Cooperativity for O=C1C[C@@H]2OCC=C3C[N+]4([O-])CC[C@]56c7ccccc7N1[C@H]5[C@H]2[C@H]3C[C@@H]64 (some centres not stated) .
Response line: 2

Prompt line: Give a short answer stating reported Cooperativity for O=C1C[C@@H]2OCC=C3C[N+]4(Cc5cccc([N+](=O)[O-])c5)CC[C@]56c7ccccc7N1[C@H]5[C@H]2[C@H]3C[C@@H]64 (some centres not stated) .
Response line: 2

Prompt line: Give a short answer stating reported Cooperativity for O=C1C[C@@H]2OCC=C3C[N+]4(Cc5ccc6ccccc6c5)CC[C@]56c7ccccc7N1[C@H]5[C@H]2[C@H]3C[C@@H]64 (some centres not stated) .
Response line: 2

Prompt line: Give a short answer stating reported Cooperativity for N#CC[N+]12CC[C@@]34c5ccccc5N5C(=O)C[C@@H]6OCC=C(C1)[C@H](C[C@@H]32)[C@@H]6[C@H]54 (some centres not stated) .
Response line: 2

* * *

system: Muscarinic acetylcholine receptor M1 (Homo sapiens) (UniProt P11229)
assayMethodText: Binding affinity at the unliganded human muscarinic acetylcholine receptor M1 was estimated as log affinity (log1/M)
// Affinity lookup, one value per entry
Lab note: jot the number down without any unit.

1) COc1cc2c(cc1OC)[C@@]13CC[N+]4(C)CC5=CCO[C@H]6CC(=O)N2[C@H]1[C@H]6[C@H]5C[C@@H]34 (stereo not given in full) ... 4

Prompt line: Give a short answer stating reported Affinity for COc1cc2c(cc1OC)[C@@]13CC[N+]4([O-])CC5=CCO[C@H]6CC(=O)N2[C@H]1[C@H]6[C@H]5C[C@@H]34 (stereo not given in full) .
Response line: 3.4

Prompt line: Give a short answer stating reported Affinity for COc1cc2c(cc1OC)[C@@]13CCN4CC5=CCO[C@H]6CC(=O)N2[C@H]1[C@H]6[C@H]5C[C@H]43 .
Response line: 4.6

* * *

system: Muscarinic acetylcholine receptor M4 (Homo sapiens) (UniProt P08173)
assayMethodText: Cooperativity with acetylcholine at human muscarinic acetylcholine receptor M4
observationType: Cooperativity

Here is how some compounds turned out for Cooperativity.
1) O=C1C[C@@H]2OCC=C3C[N+]4(Cc5cccc([N+](=O)[O-])c5)CC[C@]56c7ccccc7N1[C@H]5[C@H]2[C@H]3C[C@@H]64 (some centres undefined) ... 0.8
2) COc1cc2c(cc1OC)[C@@]13CC[N+]4(C)CC5=CCO[C@H]6CC(=O)N2[C@H]1[C@H]6[C@H]5C[C@@H]34 (some centres undefined) ... 0.8
3) CC[N+]12CC[C@@]34c5ccccc5N5C(=O)C[C@@H]6OCC=C(C1)[C@H](C[C@@H]32)[C@@H]6[C@H]54 (some centres undefined) ... < 0.2
4) C#CC[N+]12CC[C@@]34c5ccccc5N5C(=O)C[C@@H]6OCC=C(C1)[C@H](C[C@@H]32)[C@@H]6[C@H]54 (some centres undefined) ... 0.8
5) O=C1C[C@@H]2OCC=C3C[N+]4(CC5CCCCC5)CC[C@]56c7ccccc7N1[C@H]5[C@H]2[C@H]3C[C@@H]64 (some centres undefined) ... < 0.2

Prompt line: Give a short answer stating reported Cooperativity for C[N+]12CC[C@@]34c5ccccc5N5C(=O)C[C@@H]6OCC=C(C1)[C@H](C[C@@H]32)[C@@H]6[C@H]54 (some centres undefined) .
Response line: < 0.2

Prompt line: Give a short answer stating reported Cooperativity for O=C1C[C@@H]2OCC=C3C[N+]4(CCc5ccccc5)CC[C@]56c7ccccc7N1[C@H]5[C@H]2[C@H]3C[C@@H]64 (some centres undefined) .
Response line: < 0.2

* * *

system: Muscarinic acetylcholine receptor M2 (Homo sapiens) (UniProt P08172)
Sequence (P08172 whole entry): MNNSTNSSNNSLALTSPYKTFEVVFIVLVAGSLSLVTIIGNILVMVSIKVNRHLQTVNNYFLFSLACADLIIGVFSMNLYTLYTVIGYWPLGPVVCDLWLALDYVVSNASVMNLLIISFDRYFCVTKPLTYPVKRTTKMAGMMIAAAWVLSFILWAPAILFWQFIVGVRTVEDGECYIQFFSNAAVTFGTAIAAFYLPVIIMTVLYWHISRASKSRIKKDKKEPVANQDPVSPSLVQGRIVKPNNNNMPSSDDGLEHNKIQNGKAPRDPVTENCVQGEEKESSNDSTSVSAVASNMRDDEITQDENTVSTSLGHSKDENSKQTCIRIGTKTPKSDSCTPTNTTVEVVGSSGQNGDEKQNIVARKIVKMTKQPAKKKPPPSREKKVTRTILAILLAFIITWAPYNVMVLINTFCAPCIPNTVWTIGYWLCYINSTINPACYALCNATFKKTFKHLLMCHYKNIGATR
assayMethodText: Binding affinity at the unliganded human muscarinic acetylcholine receptor M2 was estimated as log affinity (log1/M)
// Affinity lookup, one value per entry
Lab note: jot the number down without any unit.

Here is how some compounds turned out for Affinity.
1) O=C1C[C@@H]2OCC=C3CN4CC[C@]56c7ccccc7N1[C@H]5[C@H]2[C@H]3C[C@H]46 ... 5
2) O=C1C[C@@H]2OCC=C3C[N+]4(Cc5ccc([N+](=O)[O-])cc5)CC[C@]56c7ccccc7N1[C@H]5[C@H]2[C@H]3C[C@@H]64 (some centres not stated) ... 4.8
3) C=CC[N+]12CC[C@@]34c5ccccc5N5C(=O)C[C@@H]6OCC=C(C1)[C@H](C[C@@H]32)[C@@H]6[C@H]54 (some centres not stated) ... 5.3
4) COc1cc2c(cc1OC)[C@@]13CC[N+]4([O-])CC5=CCO[C@H]6CC(=O)N2[C@H]1[C@H]6[C@H]5C[C@@H]34 (some centres not stated) ... 2.7
5) C[N+]12CC[C@@]34c5ccccc5N5C(=O)C[C@@H]6OCC=C(C1)[C@H](C[C@@H]32)[C@@H]6[C@H]54 (some centres not stated) ... 4.4

Proceed to the following item.
Prompt line: Report measured Affinity on Muscarinic acetylcholine receptor M2 (Homo sapiens) (UniProt P08172); entry: C#CC[N+]12CC[C@@]34c5ccccc5N5C(=O)C[C@@H]6OCC=C(C1)[C@H](C[C@@H]32)[C@@H]6[C@H]54 (some centres not stated)
Response line: 5.2

* * *

system: UniProtKB P11229
assayMethodText: Cooperativity with NMS at human muscarinic acetylcholine receptor M1
// Cooperativity lookup, one value per entry
Lab note: jot the number down without any unit.

Here is how some compounds turned out for Cooperativity.
1) COc1cc2c(cc1OC)[C@@]13CC[N+]4(CCl)CC5=CCO[C@H]6CC(=O)N2[C@H]1[C@H]6[C@H]5C[C@@H]34 (stereo not given in full) ... 0.2
2) O=C1C[C@@H]2OCC=C3C[N+]4(Cc5ccc(-c6ccccc6)cc5)CC[C@]56c7ccccc7N1[C@H]5[C@H]2[C@H]3C[C@@H]64 (stereo not given in full) ... 0.8
3) COc1cc2c(cc1OC)[C@@]13CCN4CC5=CCO[C@H]6CC(=O)N2[C@H]1[C@H]6[C@H]5C[C@H]43 ... 1.19

Proceed to the following item.
Prompt line: Give a short answer stating reported Cooperativity for C=CC[N+]12CC[C@@]34c5cc(OC)c(OC)cc5N5C(=O)C[C@@H]6OCC=C(C1)[C@H](C[C@@H]32)[C@@H]6[C@H]54 (stereo not given in full) .
Response line: 0.8

* * *

// Affinity lookup, one value per entry
system: Muscarinic acetylcholine receptor M4 (Homo sapiens) (UniProt P08173)
Sequence (whole entry): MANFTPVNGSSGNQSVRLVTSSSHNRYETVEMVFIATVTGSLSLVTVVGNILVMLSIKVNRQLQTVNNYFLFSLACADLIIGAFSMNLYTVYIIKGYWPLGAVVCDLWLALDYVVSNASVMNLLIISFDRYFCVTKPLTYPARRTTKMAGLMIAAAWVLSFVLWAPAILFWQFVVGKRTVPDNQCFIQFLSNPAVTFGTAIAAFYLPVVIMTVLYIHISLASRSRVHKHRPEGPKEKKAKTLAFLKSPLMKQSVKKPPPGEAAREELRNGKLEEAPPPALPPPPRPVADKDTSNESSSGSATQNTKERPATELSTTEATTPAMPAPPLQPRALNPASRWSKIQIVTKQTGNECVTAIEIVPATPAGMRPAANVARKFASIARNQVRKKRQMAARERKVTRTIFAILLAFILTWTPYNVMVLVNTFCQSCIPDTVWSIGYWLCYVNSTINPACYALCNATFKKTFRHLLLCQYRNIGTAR
assayMethodText: Binding affinity at the NMS liganded human muscarinic acetylcholine receptor M4 was estimated as log affinity (log1/M)
Lab note: jot the number down without any unit.

Here is how some compounds turned out for Affinity.
1) CC[N+]12CC[C@@]34c5ccccc5N5C(=O)C[C@@H]6OCC=C(C1)[C@H](C[C@@H]32)[C@@H]6[C@H]54 (some centres undefined) ... 4.9
2) O=C1C[C@@H]2OCC=C3C[N+]4([O-])CC[C@]56c7ccccc7N1[C@H]5[C@H]2[C@H]3C[C@@H]64 (some centres undefined) ... 4.1
3) C=CC[N+]12CC[C@@]34c5cc(OC)c(OC)cc5N5C(=O)C[C@@H]6OCC=C(C1)[C@H](C[C@@H]32)[C@@H]6[C@H]54 (some centres undefined) ... 4.6
4) O=C1C[C@@H]2OCC=C3C[N+]4(Cc5ccccc5)CC[C@]56c7ccccc7N1[C@H]5[C@H]2[C@H]3C[C@@H]64 (some centres undefined) ... 5.6
5) C=CC[N+]12CC[C@@]34c5ccccc5N5C(=O)C[C@@H]6OCC=C(C1)[C@H](C[C@@H]32)[C@@H]6[C@H]54 (some centres undefined) ... 5

Prompt line: Give a short answer stating reported Affinity for O=C1C[C@@H]2OCC=C3C[N+]4(Cc5ccc([N+](=O)[O-])cc5)CC[C@]56c7ccccc7N1[C@H]5[C@H]2[C@H]3C[C@@H]64 (some centres undefined) .
Response line: 5.4

Prompt line: Give a short answer stating reported Affinity for C=CC[N+]12CC[C@@]34c5ccccc5N5/C=C6/[C@H]7C[C@H]8[C@@]9(CC[N@@+]8(CC=C)C/C7=C/CO)c7ccccc7N(/C=C(/[C@@H](C[C@@H]31)/C(=C\CO)C2)[C@H]54)[C@@H]69 (some centres undefined) .
Response line: 4.7
